TARGET DESC: T1, CD38 (human, UniProt P28907 43-300, limits assumed)
T1 construct: also called cluster of differentiation 38; cyclic ADP ribose hydrolase
EXPERIMENT SUMMARY: ELISA; larger values represent binding
Where no end group is shown, it is not given here. [ ]: non-standard residue; d: D form. Bip = N[C@@H](Cc1ccc(-c2ccccc2)cc1)C(=O)O; NMeF = CN[C@@H](Cc1ccccc1)C(=O)O
Entries and their measured Binding Assay (ELISA signal) follow.

Query: Input ALH[NMeF]ALP[Bip]VWVC (not fully specified (N-terminus, bridges); printed as A L H MeF A L P Bph V W V C, Alanine variant at position 5) [A L H MeF A L P Bph V W V C] , output reported Binding Assay (ELISA signal).
Result: 0.47

Cited source for all entries: patent US20230028880A1
